# EXPERIMENT: Oral bioavailability in mouse
# Assay type: ADME, organism-based
# CONDITION_DESCRIPTION: in vivo

[
  {
    "SMILES_DATA": "COc1ncc(-c2ccc3nccc(-c4ccnnc4)c3c2)cc1NS(=O)(=O)c1ccc(F)cc1F",
    "bioavailability": "100%"
  }
]

---

# EXPERIMENT: Intrinsic clearance in rat liver microsomes
# Format: ADME, Microsome
# CONDITION_DESCRIPTION: read-out: CLH (converted)

[
  {
    "SMILES_DATA": "C[C@H](Nc1ncnc2[nH]cnc12)c1cc2ccc(F)cc2nc1-c1ccccn1",
    "U": "mL/min/kg",
    "CLint scaled": 5.67
  }
]
